# TESTED TARGET: human TLR7 (Homo sapiens, UniProt Q9NYK1)
# Sequence (Q9NYK1 27-1049): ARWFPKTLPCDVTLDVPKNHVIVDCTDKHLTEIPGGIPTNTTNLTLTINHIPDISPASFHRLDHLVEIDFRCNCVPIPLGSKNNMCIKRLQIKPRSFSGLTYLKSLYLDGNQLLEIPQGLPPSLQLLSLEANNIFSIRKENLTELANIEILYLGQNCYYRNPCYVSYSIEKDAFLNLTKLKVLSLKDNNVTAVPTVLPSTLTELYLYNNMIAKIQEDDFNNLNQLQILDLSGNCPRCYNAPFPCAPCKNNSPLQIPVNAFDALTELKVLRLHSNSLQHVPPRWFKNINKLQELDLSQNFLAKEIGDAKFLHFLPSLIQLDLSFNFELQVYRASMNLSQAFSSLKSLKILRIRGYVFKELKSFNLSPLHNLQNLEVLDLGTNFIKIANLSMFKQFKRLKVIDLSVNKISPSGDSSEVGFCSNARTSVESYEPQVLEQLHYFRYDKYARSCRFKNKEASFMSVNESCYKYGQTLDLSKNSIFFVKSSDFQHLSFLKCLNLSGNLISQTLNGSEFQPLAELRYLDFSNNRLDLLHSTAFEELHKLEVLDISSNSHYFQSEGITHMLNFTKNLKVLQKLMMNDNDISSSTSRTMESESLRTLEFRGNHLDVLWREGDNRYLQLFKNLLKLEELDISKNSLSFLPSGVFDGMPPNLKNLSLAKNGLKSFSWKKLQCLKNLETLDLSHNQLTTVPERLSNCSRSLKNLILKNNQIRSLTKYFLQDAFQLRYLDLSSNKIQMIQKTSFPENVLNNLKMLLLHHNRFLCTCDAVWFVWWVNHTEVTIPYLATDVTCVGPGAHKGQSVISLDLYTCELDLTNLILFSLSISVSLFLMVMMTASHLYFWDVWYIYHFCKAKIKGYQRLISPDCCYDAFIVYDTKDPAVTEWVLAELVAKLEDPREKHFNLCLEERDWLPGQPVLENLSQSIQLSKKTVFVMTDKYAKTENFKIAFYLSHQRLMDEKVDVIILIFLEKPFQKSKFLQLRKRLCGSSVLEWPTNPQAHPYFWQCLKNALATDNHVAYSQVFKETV
# METHOD NOTES: HEK293-Blue-hTLR-7 cells assay
# MEASUREMENT SETUP: HEK293-Blue-hTLR7 cells, R848 stimulation, 20 hrs, SEAP reporter; read-out: HEK/hTLR7 IC50
pIC50: −log10 of the molar value.
QUANTITY MEASURED: pIC50

Take a look at these entries with their results.
C[C@@H]1CN(c2ccc(C#N)c3ncccc23)C[C@@H]2c3ccc(NC4CNC4)cc3CN12; 7.81
C[C@@H]1CN(c2ccc(C#N)c3ncccc23)C[C@@H]2c3ccc(NC4CNCCOC4)cc3CN12 (stereo partly drawn); 8.16
C[C@@H]1CN(c2ccc(C#N)c3ncccc23)C[C@@H]2c3ccc(N4CC(C)(N)C4)cc3CN12; 8.52
C[C@@H]1CN(c2ccc(C#N)c3ncccc23)C[C@@H]2c3ccc(N4CCC(N)(CO)C4)cc3CN12 (stereo partly drawn); 8.44

[A] COC1CN(c2ccc3c(c2)CN2C3CN(c3ccc(C#N)c4ncccc34)C[C@H]2C)CC1N (single isomer, unassigned) [Example 16B]
[B] Cc1ccc(N2C[C@@H](C)N3Cc4cc(N[C@H]5CNC[C@H]5F)ccc4[C@H]3C2)c2cccnc12
[C] C[C@@H]1CN(c2ccc(C#N)n3nccc23)C[C@@H]2c3ccc(N4CCOC[C@H](N)C4)cc3CN12
Order the 3 compounds from highest to lowest pIC50. Arrange the labels as the request states and list them. A, C, B

----------
# TESTED TARGET: hERG K+ channel (Homo sapiens)
# Construct: expressed in transfected cells; host or cells: CHO (Chinese hamster ovary) cells, CHOhERG
# Sequence (Q12809 whole entry): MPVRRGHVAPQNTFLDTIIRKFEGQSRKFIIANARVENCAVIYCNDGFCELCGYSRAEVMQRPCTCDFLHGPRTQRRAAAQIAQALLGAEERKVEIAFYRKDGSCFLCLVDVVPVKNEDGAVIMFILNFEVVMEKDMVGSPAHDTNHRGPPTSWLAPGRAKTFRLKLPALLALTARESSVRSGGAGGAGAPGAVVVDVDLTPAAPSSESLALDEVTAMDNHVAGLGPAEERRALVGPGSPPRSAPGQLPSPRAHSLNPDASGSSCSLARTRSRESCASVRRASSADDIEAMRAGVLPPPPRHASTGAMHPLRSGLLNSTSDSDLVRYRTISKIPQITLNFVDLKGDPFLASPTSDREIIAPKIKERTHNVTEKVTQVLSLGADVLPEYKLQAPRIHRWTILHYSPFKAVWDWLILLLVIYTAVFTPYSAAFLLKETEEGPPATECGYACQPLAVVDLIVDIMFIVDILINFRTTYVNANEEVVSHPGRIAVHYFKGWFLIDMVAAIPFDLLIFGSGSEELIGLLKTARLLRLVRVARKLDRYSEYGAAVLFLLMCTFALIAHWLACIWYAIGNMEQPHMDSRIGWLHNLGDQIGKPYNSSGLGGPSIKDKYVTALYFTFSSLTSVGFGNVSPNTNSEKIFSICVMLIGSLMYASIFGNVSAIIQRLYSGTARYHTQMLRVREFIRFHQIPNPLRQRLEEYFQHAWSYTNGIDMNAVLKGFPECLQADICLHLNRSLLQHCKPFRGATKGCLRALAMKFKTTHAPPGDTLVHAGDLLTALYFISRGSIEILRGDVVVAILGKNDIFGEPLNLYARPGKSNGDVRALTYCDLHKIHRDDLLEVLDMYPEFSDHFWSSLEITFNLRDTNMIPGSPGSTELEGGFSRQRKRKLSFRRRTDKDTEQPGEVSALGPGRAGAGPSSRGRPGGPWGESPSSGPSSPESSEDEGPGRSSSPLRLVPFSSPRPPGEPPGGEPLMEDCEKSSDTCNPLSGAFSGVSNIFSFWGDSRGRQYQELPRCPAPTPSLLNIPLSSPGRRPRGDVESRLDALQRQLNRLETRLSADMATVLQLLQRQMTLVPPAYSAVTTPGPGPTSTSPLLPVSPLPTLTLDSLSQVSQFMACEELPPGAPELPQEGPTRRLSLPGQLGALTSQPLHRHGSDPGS
# METHOD NOTES: hERG channel inhibition assay
# Assay type: cell-based
# MEASUREMENT SETUP: human, CHO cells stably expressing hERG, patch-clamp (voltage-clamp, whole-cell)
QUANTITY MEASURED: IC20

Known IC20 results, listed for orientation:
C[C@@H]1CN(c2ccc(C#N)c3ncccc23)C[C@@H]2c3ccc(NC4CNCCOC4)cc3CN12 (stereo partly shown); > 10 µM
C[C@@H]1CN(c2ccc(C#N)c3ncccc23)C[C@@H]2c3ccc(N4CCNC[C@H](O)C4)cc3CN12 [Example 53A]; 6.6 µM
CO[C@H]1CN(c2ccc3c(c2)CN2[C@H](C)CN(c4ccc(C#N)c5ncccc45)C[C@H]32)C[C@@H]1N (relative stereo); > 10 µM

Shifting focus to the molecule that follows.
Determine from records and report IC20 for C[C@@H]1CN(c2ccc(C#N)c3ncccc23)C[C@@H]2c3ccc(NC4CNC4)cc3CN12 > 10 µM
